- System: SNB-75 CNS
- assay-remarks: NCI tumour cell line growth inhibition, 48 h
Could you label it Yes if measured TGI is 30 µM or higher, and No otherwise?

molecule	class-label
CC1OC(O[C@@H]2C=C3CC[C@@H]4[C@H](CC[C@]5(C)[C@@H](c6ccc(=O)oc6)CC[C@]45O)[C@@]3(C)CC2)C(O)C(O)C1O (stereo not given in full)	No

Challenge: Kindly determine if TGI recorded for O=C(O)CCCCCNCc1cc2cc3c(cc2c2cc(OCc4ccccc4)ccc12)OCO3 is above or exactly 30 µM.
Response given: No

Challenge: Kindly determine if TGI recorded for O=C(OC[C@H]1C[C@H]2C(=O)OCCC[C@H]2O1)c1ccccc1 is above or exactly 30 µM.
Response given: Yes

Challenge: Kindly determine if TGI recorded for O=C(OC1C#CCSCC#C/C=C\1)c1ccc2c(c1)C(=O)c1ccccc1C2=O (stereo not given) is above or exactly 30 µM.
Response given: Yes

Challenge: Kindly determine if TGI recorded for Clc1ccc(Cc2nc3cc4ccccc4cc3[nH]2)cc1Cl is above or exactly 30 µM.
Response given: Yes

Challenge: Kindly determine if TGI recorded for CC(C)C1OC(=O)C(Cc2ccccc2)N(C)C(=O)C(C(C)C)OC(=O)C(Cc2ccccc2)N(C)C(=O)C(C(C)C)OC(=O)C(Cc2ccccc2)N(C)C1=O (stereo not given) is above or exactly 30 µM.
Response given: No

Challenge: Kindly determine if TGI recorded for COc1cc([C@H]2OC[C@@H]3C(c4cc(OC)c5c(c4)OCO5)OC[C@H]23)cc(OC)c1OC (stereo not given in full) is above or exactly 30 µM.
Response given: Yes

Challenge: Kindly determine if TGI recorded for O=C(Cn1c(=O)oc2ccccc21)N(c1ccccc1)c1ccccc1 is above or exactly 30 µM.
Response given: Yes

---

- Test system: A549 NSCLC
- assay-remarks: NCI tumour cell line growth inhibition, 48 h
Assignment: determine reported GI50 for the given compounds.

As a guide, the following entries are already answered.
> print(dat)
                                   compound  quantity.measured   result
1  CNC(=O)c1sc(-n2cnc3cc(OC)c(OC)cc32)cc1OCc1ccccc1C(F)(F)F               GI50  > 25 µM
2  O=C(NCCN1CCOCC1)c1cc2c(Oc3ccc(NC(=O)C4(C(=O)Nc5ccc(F)cc5)CC4)cc3)ccnc2[nH]1               GI50   4.9 µM
3  O=C(O)CCCCCNCc1cc2cc3c(cc2c2cc(OCc4ccccc4)ccc12)OCO3               GI50  1.55 µM

Quick one: give me GI50 for each item below, same order please.
1. CC1CCc2c(C(=O)Nc3ncc(Cc4cccc([N+](=O)[O-])c4)s3)csc2C1 (stereo not given)
2. CC(=O)[CH-]C(=O)c1ccccc1.CC(=O)[CH-]C(=O)c1ccccc1.Cl.[O-]CCc1ccccn1.[O-]CCc1ccccn1.[Ti+4]

Response given:
1. 0.944 µM
2. 27.8 µM

---

- System: HCT-116 colon
- assay-remarks: NCI tumour cell line growth inhibition, 48 h
Assignment: determine reported TGI for the given compounds.

> print(dat)
                                   compound    result
1  O=C1N[C@@H]([C@H]2CC[C@H](Cl)CN2)C(=O)N[C@H]1[C@H]1CC[C@H](Cl)CN1   32.7 µM
2          CSC(SC)=C(C#N)C(=O)Nc1ccc(Cl)cc1  > 100 µM
3      CCn1c(=O)c2nc(SC)sc2n(-c2ccccc2)c1=S  > 100 µM
4  CCOC(=O)c1cccc(N=NNc2cccc(C(=O)OCC)c2)c1  > 100 µM
5  C/C(=C\COP(=O)(O)OP(=O)(O)O)CC/C=C(\C)CNc1c(F)c(F)c(F)c(F)c1F  > 100 µM
6  CC(=O)OC1CCC2(C)C(CCC3C2CCC2(C)C(c4ccc(=O)oc4)C(OC(C)=O)CC32O)C1 (stereo not given)  0.036 µM
7  CC(=O)CC(O)(C(F)(F)Cl)C(F)(Cl)Cl (stereo not given)   > 10 µM
8  CN(CCNC(=O)c1nn(C)c2c1Cc1ccccc1-2)CCNC(=O)c1nn(C)c2c1Cc1ccccc1-2   28.9 µM

Quick one: give me TGI for each item below, same order please.
1. Cc1cc2c3ccccc3n3c2c2c1OC1(C)CCC(C2C1)C3(C)C (stereo not given)
2. COC1=CC(=O)C2(C=C1OC)OC[C@H]1Oc3c(ccc4c3C=CC(C)(C)O4)C(=O)[C@H]12 (stereo not given in full)

Response given:
1: > 25 µM; 2: > 100 µM
